# experiment description: In vitro inhibition of [3H]GABA uptake in rat synaptosomes
# Assay type: functional, subcellular, Brain
Labelling: IC50 reported below 300 nM becomes y; at or above becomes n.

query: Answer whether the molecule O=C(O)C1CCCN(CCC=C(c2cccs2)c2cccs2)C1 (stereo not drawn) has IC50 strictly less than 300 nM
result: y

query: Also need Cl.Cn1cccc1/C(=C\CCN1CCC=C(C(=O)O)C1)c1ccccc1 , thanks.
result: y

query: Could you do the same for Cc1ccsc1/C(=C\CCN1CCC=C(C(=O)O)C1)c1ccc(Cl)cc1Cl , please?
result: n

query: For Cc1ccsc1/C(=C\CCN1CCC[C@H](C(=O)O)C1)c1c(C)cccc1C then?
result: y

query: Please answer likewise for Cl.O=C(O)C1=CCCN(CCC=C(c2ccccc2)c2ccccc2)C1
result: n

query: Subsequent entry: Cc1ccsc1/C(=C\CCN1CCC=C(C(=O)O)C1)c1cccs1.Cl
result: y

query: What do we get for O=C(O)[C@H]1CCCN(CCC=C2c3ccccc3-c3ccccc32)C1 ?
result: n

query: What do you get for Cc1ccccc1C(OCCN1CCCC(C(=O)O)C1)c1ccccc1C (stereo not drawn) ?
result: n

query: Then Cl.O=C(O)C1CCCN(CCC=C(c2ccccc2)c2ccccc2)C1 (stereo not drawn) ?
result: n

query: O=C(O)C1=CCCN(CC/C=C(/c2ccccc2)c2cccs2)C1 ?
result: y

query: Next: Cc1ccsc1C(=CCCN1CCC[C@@H](C(=O)O)C1)c1sccc1C.Cl [TIAGABINE HYDROCHLORIDE]
result: y

query: Same for Cc1ccccc1/C(=C/CCN1CCC=C(C(=O)O)C1)c1sccc1C.Cl
result: y

* * *

# experiment description: In vitro inhibition of [3H]GABA uptake in rat synaptosomes
# Format: functional, subcellular, Brain
Binary call on IC50 with cut-off 0.3 µM: strictly below means satisfied, and equality or higher means not satisfied.

query: Item Cc1ccsc1/C(=C\CCN1CCC=C(C(=O)O)C1)c1cc(Cl)cc(Cl)c1 : IC50 beneath 0.3 µM, strictly?
result: not satisfied

query: And then Cc1ccsc1C(=CCCN1CCCC(C(=O)O)C1)c1sccc1C.Cl (stereo unspecified) , what is it?
result: satisfied

query: // repeat for Cc1ccsc1C(=CCCN1CCC=C(C(=O)O)C1)c1sccc1C.Cl and report
result: satisfied

query: Next entry: Cc1ccsc1/C(=C\CCN1CCC[C@@H](C(=O)O)C1)c1cccs1
result: not satisfied

query: Then this compound: Cc1ccsc1/C(=C\CCN1CCC[C@H](C(=O)O)C1)c1cccs1.Cl
result: satisfied

query: Then what about the compound Cc1ccc(/C(=C/CCN2CCC[C@H](C(=O)O)C2)c2sccc2C)c(C)c1 ?
result: satisfied

query: Proceed to Cc1ccsc1/C(=C\CCN1CCC=C(C(=O)O)C1)c1ccc(Cl)cc1
result: not satisfied

query: Now give it for Cc1ccsc1/C(=C\CCN1CCCC(C(=O)O)C1)c1ccccc1 (stereo unspecified) too.
result: satisfied

query: Param item: O=C(O)C1CCCN(CCOC(c2ccccc2)c2ccccc2)C1 (stereo unspecified)
result: not satisfied

query: Try this compound too: Cc1ccsc1C(=CCCN1CCC[C@H](C(=O)O)C1)c1sccc1C
result: satisfied

query: Same lookup for COc1ccc(C(OCCN2CCCC(C(=O)O)C2)c2ccc(OC)cc2)cc1 (stereo unspecified) , please.
result: not satisfied

* * *

# experiment description: Lipophilicity measured as partition between octanol and pH 7.4 buffer
# Assay type: physicochemical
# cond: octanol/pH 7.4 buffer
parameter: logD
Enter the number alone.

query: Bench note: what logD did Cc1ccsc1C(=CCCN1CCC[C@@H](C(=O)O)C1)c1sccc1C.Cl [TIAGABINE HYDROCHLORIDE] show?
result: 1.59
